# target: Cyclin-dependent kinase 2 (Homo sapiens, UniProt P24941)
measured_metric: IC50 (µM)

P. Nc1ccccc1NC(=O)c1ccc(-c2ccc3ncnc(Nc4ccc(OCc5cccc(F)c5)c(Cl)c4)c3c2)o1
Q. Nc1ccccc1NC(=O)/C=C/c1ccc(-c2ccc3ncnc(Nc4ccc(OCc5cccc(F)c5)c(Cl)c4)c3c2)o1
Between P and Q , which one shows the larger IC50 value? The response must carry the label of the picked entry.
P

* * *

# procedure_summary: Inhibition of PKA by flash plate based radioactive enzyme assay
pIC50: −log10 of the molar value.
measured_metric: pIC50

As a guide, the following entries are already answered.
{"molecule": "Nc1ccccc1NC(=O)/C=C/c1ccc(-c2ccc3ncnc(Nc4ccc(OCc5cccc(F)c5)c(Cl)c4)c3c2)cc1", "measured_metric": "pIC50", "measurement": "< 4.00"}
{"molecule": "O=C(NO)c1ccc(-c2ccc3ncnc(Nc4ccc(OCc5cccc(F)c5)c(Cl)c4)c3c2)s1", "measured_metric": "pIC50", "measurement": "< 4.00"}
{"molecule": "O=C(/C=C/c1ccc(-c2ccc3ncnc(Nc4ccc(OCc5cccc(F)c5)c(Cl)c4)c3c2)o1)NO", "measured_metric": "pIC50", "measurement": 3.92}
{"molecule": "O=C(/C=C/c1ccc(-c2ccc3ncnc(Nc4ccc(OCc5cccc(F)c5)c(Cl)c4)c3c2)cc1)NO", "measured_metric": "pIC50", "measurement": "< 4.00"}

// lookup pIC50 for CS(=O)(=O)CCNCc1ccc(-c2ccc3ncnc(Nc4ccc(OCc5cccc(F)c5)c(Cl)c4)c3c2)o1 [LAPATINIB]
< 4.00

Now consider "Nc1ccccc1NC(=O)c1ccc(-c2ccc3ncnc(Nc4ccc(OCc5cccc(F)c5)c(Cl)c4)c3c2)o1" and answer again.
< 4.00

* * *

# target: Serine/threonine-protein kinase PLK1 (Homo sapiens, UniProt P53350)
# Sequence (P53350 whole entry): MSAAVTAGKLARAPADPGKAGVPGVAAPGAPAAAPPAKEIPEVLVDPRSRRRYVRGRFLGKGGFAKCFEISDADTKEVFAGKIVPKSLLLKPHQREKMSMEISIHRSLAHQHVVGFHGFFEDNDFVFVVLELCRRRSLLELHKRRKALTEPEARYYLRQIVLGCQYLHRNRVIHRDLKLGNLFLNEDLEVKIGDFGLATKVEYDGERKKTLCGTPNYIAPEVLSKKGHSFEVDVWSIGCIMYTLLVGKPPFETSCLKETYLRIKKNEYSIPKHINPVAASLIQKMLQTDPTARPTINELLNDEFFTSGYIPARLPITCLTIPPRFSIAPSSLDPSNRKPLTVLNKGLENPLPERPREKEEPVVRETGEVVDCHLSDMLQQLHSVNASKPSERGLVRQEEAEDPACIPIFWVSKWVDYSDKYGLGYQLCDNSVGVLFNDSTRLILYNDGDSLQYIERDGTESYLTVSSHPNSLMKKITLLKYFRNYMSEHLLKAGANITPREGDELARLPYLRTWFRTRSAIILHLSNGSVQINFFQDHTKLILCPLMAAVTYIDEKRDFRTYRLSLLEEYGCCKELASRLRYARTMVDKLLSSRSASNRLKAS
pIC50: −log10 of the molar value.
measured_metric: pIC50

{"chemical_string": "O=C(NO)c1ccc(-c2ccc3ncnc(Nc4ccc(OCc5cccc(F)c5)c(Cl)c4)c3c2)o1", "measured_metric": "pIC50", "measurement": 5.70}

a. O=C(/C=C/c1cccc(-c2ccc3ncnc(Nc4ccc(OCc5cccc(F)c5)c(Cl)c4)c3c2)c1)NO
b. O=C(/C=C/c1ccc(-c2ccc3ncnc(Nc4ccc(OCc5cccc(F)c5)c(Cl)c4)c3c2)o1)NO
Among a and b , whose measured pIC50 is the smaller figure? Bench note: the answer is the label of the chosen record.
b

* * *

Below is a list of entries, each paired with its recorded pIC50 value.
# target: Histone deacetylase 3 (Homo sapiens)
# Sequence (O15379 whole entry, the tested form may be a part): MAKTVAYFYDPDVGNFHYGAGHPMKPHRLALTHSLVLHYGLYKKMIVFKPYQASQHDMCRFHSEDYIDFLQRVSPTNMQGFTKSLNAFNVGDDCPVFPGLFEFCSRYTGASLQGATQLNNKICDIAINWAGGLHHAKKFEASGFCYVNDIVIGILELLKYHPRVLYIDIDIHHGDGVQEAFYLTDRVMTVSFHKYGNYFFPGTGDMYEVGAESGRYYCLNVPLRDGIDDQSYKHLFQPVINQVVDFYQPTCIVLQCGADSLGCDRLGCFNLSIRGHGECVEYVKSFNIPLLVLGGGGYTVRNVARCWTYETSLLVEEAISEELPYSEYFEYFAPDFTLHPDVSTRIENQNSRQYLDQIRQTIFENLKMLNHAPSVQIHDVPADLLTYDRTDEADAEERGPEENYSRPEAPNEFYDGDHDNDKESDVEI
# procedure_summary: Inhibition of Flag tagged human recombinant HDAC3 expressed in Sf21 cells coexpressing SMRT DAD domain
pIC50: −log10 of the molar value.

Observe how each entry below is paired with its result.
{"chemical_string": "Nc1ccccc1NC(=O)c1ccc(-c2ccc3ncnc(Nc4ccc(OCc5cccc(F)c5)c(Cl)c4)c3c2)o1", "target": "Histone deacetylase 3 (Homo sapiens)", "pIC50": "< 4.49"}
{"chemical_string": "Nc1ccccc1NC(=O)/C=C/c1cccc(-c2ccc3ncnc(Nc4ccc(OCc5cccc(F)c5)c(Cl)c4)c3c2)c1", "target": "Histone deacetylase 3 (Homo sapiens)", "pIC50": "< 4.49"}

Consider the molecule "Nc1ccccc1NC(=O)c1ccc(-c2ccc3ncnc(Nc4ccc(OCc5cccc(F)c5)c(Cl)c4)c3c2)s1" and give its measured pIC50.
< 4.49

"O=C(/C=C/c1cccc(-c2ccc3ncnc(Nc4ccc(OCc5cccc(F)c5)c(Cl)c4)c3c2)c1)NO" , same question.
7.18

Further, for "O=C(/C=C/c1ccc(-c2ccc3ncnc(Nc4ccc(OCc5cccc(F)c5)c(Cl)c4)c3c2)o1)NO" ?
5.20

Also "O=C(/C=C/c1ccc(-c2ccc3ncnc(Nc4ccc(OCc5cccc(F)c5)c(Cl)c4)c3c2)cc1)NO" , if possible.
< 4.49

Likewise for "O=C(NO)c1ccc(-c2ccc3ncnc(Nc4ccc(OCc5cccc(F)c5)c(Cl)c4)c3c2)o1" ?
< 4.49

Same question for "Nc1ccccc1NC(=O)/C=C/c1ccc(-c2ccc3ncnc(Nc4ccc(OCc5cccc(F)c5)c(Cl)c4)c3c2)cc1" please.
< 4.49

Entry "Nc1ccccc1NC(=O)CCc1ccc(-c2ccc3ncnc(Nc4ccc(OCc5cccc(F)c5)c(Cl)c4)c3c2)cc1" please
< 4.49

Same question, "CS(=O)(=O)CCNCc1ccc(-c2ccc3ncnc(Nc4ccc(OCc5cccc(F)c5)c(Cl)c4)c3c2)o1" this time
< 5.00

Next up: "Nc1ccccc1NC(=O)/C=C/c1ccc(-c2ccc3ncnc(Nc4ccc(OCc5cccc(F)c5)c(Cl)c4)c3c2)o1"
< 4.49

Param item: "O=C(NO)c1ccc(-c2ccc3ncnc(Nc4ccc(OCc5cccc(F)c5)c(Cl)c4)c3c2)s1"
6.25

* * *

Target or system Receptor tyrosine-protein kinase erbB-2 (Homo sapiens, UniProt P04626): recorded pIC50 listed per item.
pIC50: −log10 of the molar value.
measured_metric: pIC50

# count of solved cases: 2
{"chemical_string": "O=C(NO)c1ccc(-c2ccc3ncnc(Nc4ccc(OCc5cccc(F)c5)c(Cl)c4)c3c2)o1", "measured_metric": "pIC50", "measurement": 8.70}
{"chemical_string": "Nc1ccccc1NC(=O)c1ccc(-c2ccc3ncnc(Nc4ccc(OCc5cccc(F)c5)c(Cl)c4)c3c2)o1", "measured_metric": "pIC50", "measurement": 8.24}

1. O=C(/C=C/c1ccc(-c2ccc3ncnc(Nc4ccc(OCc5cccc(F)c5)c(Cl)c4)c3c2)s1)NO
2. Nc1ccccc1NC(=O)/C=C/c1cccc(-c2ccc3ncnc(Nc4ccc(OCc5cccc(F)c5)c(Cl)c4)c3c2)c1
Smaller pIC50 value, 1 vs 2 ? Give the label under which the chosen entry appears.
2

* * *

# target: Histone deacetylase
# procedure_summary: Inhibition of HDAC in human HeLa cell nuclear extracts
# Assay type: cell-based
measured_metric: IC50

Quick check: IC50 on Histone deacetylase, item "O=C(/C=C/c1ccc(-c2ccc3ncnc(Nc4ccc(OCc5cccc(F)c5)c(Cl)c4)c3c2)o1)NO" ?
0.63 µM

Now the same for "Nc1ccccc1NC(=O)/C=C/c1ccc(-c2ccc3ncnc(Nc4ccc(OCc5cccc(F)c5)c(Cl)c4)c3c2)cc1"
> 32 µM

* * *

Notes on IC50 obtained with Platelet-derived growth factor receptor beta (Homo sapiens, UniProt P09619).
Sequence (P09619 whole entry): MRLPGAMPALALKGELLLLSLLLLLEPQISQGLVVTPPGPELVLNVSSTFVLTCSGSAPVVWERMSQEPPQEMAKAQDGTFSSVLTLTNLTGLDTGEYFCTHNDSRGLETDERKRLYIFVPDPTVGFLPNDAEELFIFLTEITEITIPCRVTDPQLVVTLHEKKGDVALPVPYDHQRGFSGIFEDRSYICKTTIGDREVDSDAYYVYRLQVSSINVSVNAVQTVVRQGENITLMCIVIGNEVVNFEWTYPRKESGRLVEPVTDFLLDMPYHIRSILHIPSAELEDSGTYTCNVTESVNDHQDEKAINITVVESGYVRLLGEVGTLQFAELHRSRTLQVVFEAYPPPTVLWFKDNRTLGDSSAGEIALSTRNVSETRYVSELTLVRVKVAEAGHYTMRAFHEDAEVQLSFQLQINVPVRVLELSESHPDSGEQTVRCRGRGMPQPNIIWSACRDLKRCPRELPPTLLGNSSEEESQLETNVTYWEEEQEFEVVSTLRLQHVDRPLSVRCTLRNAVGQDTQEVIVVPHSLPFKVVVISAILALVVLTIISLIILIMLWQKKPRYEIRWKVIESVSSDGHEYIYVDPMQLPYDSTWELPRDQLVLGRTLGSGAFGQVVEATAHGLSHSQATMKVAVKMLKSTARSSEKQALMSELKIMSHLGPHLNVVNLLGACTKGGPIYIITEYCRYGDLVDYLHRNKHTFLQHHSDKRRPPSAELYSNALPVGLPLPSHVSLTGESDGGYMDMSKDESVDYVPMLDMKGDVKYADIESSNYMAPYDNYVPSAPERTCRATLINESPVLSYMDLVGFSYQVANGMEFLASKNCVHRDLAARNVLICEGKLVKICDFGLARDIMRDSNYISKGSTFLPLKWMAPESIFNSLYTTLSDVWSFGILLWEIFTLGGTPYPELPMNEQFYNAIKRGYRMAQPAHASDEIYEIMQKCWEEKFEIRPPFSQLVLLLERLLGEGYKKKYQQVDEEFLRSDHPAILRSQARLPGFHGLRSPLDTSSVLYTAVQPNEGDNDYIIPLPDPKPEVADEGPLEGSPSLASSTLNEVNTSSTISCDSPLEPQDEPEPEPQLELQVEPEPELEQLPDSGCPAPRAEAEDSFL
measured_metric: IC50 (µM)

Use these answered entries as a reference point.
{"chemical_string": "Nc1ccccc1NC(=O)c1ccc(-c2ccc3ncnc(Nc4ccc(OCc5cccc(F)c5)c(Cl)c4)c3c2)s1", "target": "Platelet-derived growth factor receptor beta (Homo sapiens, UniProt P09619)", "IC50 [µM]": 2.3}
{"chemical_string": "Nc1ccccc1NC(=O)c1ccc(-c2ccc3ncnc(Nc4ccc(OCc5cccc(F)c5)c(Cl)c4)c3c2)o1", "target": "Platelet-derived growth factor receptor beta (Homo sapiens, UniProt P09619)", "IC50 [µM]": 4}
{"chemical_string": "Nc1ccccc1NC(=O)/C=C/c1ccc(-c2ccc3ncnc(Nc4ccc(OCc5cccc(F)c5)c(Cl)c4)c3c2)o1", "target": "Platelet-derived growth factor receptor beta (Homo sapiens, UniProt P09619)", "IC50 [µM]": 3.9}

a. O=C(/C=C/c1ccc(-c2ccc3ncnc(Nc4ccc(OCc5cccc(F)c5)c(Cl)c4)c3c2)o1)NO
b. O=C(/C=C/c1ccc(-c2ccc3ncnc(Nc4ccc(OCc5cccc(F)c5)c(Cl)c4)c3c2)cc1)NO
Field: entry with larger IC50 (options a / b ). Bench note: the answer is the label of the chosen record.
a

* * *

# target: Epidermal growth factor receptor (Homo sapiens, UniProt P00533)
# Sequence (P00533 whole entry): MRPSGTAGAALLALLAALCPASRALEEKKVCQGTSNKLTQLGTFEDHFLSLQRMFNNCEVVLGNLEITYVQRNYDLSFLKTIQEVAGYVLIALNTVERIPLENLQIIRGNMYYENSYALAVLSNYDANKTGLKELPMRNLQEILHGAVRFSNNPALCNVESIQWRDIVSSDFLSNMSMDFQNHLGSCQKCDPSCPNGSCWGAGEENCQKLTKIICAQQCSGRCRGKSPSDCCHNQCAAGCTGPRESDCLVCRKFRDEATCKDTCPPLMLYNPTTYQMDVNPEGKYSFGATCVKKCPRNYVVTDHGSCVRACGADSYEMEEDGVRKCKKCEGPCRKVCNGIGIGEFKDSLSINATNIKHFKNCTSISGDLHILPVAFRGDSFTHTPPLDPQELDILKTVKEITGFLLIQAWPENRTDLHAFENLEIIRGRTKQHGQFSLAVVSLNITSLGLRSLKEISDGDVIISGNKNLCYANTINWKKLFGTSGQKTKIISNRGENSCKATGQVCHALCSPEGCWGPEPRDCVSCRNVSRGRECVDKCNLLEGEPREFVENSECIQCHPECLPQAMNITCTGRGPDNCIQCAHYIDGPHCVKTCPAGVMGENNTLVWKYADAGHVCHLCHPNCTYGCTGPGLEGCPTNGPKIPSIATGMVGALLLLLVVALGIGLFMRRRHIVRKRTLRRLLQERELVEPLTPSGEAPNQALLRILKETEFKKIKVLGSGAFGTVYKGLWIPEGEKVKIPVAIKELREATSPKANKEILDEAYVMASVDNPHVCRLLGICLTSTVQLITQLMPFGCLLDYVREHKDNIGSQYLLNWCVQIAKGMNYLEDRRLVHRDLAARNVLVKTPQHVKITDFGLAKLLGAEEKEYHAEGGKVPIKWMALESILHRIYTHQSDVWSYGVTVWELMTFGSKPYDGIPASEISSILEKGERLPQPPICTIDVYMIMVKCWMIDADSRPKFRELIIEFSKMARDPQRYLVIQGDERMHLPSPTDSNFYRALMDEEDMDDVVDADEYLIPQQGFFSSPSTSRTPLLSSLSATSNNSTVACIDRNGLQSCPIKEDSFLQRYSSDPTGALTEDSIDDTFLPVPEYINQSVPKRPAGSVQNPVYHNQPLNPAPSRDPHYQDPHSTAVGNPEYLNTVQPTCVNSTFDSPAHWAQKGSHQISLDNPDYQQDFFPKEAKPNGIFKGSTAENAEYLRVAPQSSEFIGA
# procedure_summary: Inhibition of EGFR by flash plate based radioactive enzyme assay
pIC50: −log10 of the molar value.
measured_metric: pIC50

// below: answered compounds
{"chemical_string": "Nc1ccccc1NC(=O)c1ccc(-c2ccc3ncnc(Nc4ccc(OCc5cccc(F)c5)c(Cl)c4)c3c2)s1", "target": "Epidermal growth factor receptor (Homo sapiens, UniProt P00533)", "pIC50": 8.55}
{"chemical_string": "Nc1ccccc1NC(=O)/C=C/c1ccc(-c2ccc3ncnc(Nc4ccc(OCc5cccc(F)c5)c(Cl)c4)c3c2)o1", "target": "Epidermal growth factor receptor (Homo sapiens, UniProt P00533)", "pIC50": 7.59}

1. O=C(/C=C/c1ccc(-c2ccc3ncnc(Nc4ccc(OCc5cccc(F)c5)c(Cl)c4)c3c2)o1)NO
2. O=C(/C=C/c1ccc(-c2ccc3ncnc(Nc4ccc(OCc5cccc(F)c5)c(Cl)c4)c3c2)cc1)NO
// select label with min value of measured pIC50 from [ 1 , 2 ] Response format: the label of the selected entry.
2

* * *

# target: Epidermal growth factor receptor (Homo sapiens)
# procedure_summary: Inhibition of EGFR by flash plate based radioactive enzyme assay
pIC50: −log10 of the molar value.
measured_metric: pIC50

// known answers, use as guide
{"chemical_string": "Nc1ccccc1NC(=O)CCc1ccc(-c2ccc3ncnc(Nc4ccc(OCc5cccc(F)c5)c(Cl)c4)c3c2)cc1", "pIC50": 7.82}
{"chemical_string": "Nc1ccccc1NC(=O)c1ccc(-c2ccc3ncnc(Nc4ccc(OCc5cccc(F)c5)c(Cl)c4)c3c2)o1", "pIC50": 8.54}
{"chemical_string": "O=C(NO)c1ccc(-c2ccc3ncnc(Nc4ccc(OCc5cccc(F)c5)c(Cl)c4)c3c2)o1", "pIC50": 8.41}

I. O=C(NO)c1ccc(-c2ccc3ncnc(Nc4ccc(OCc5cccc(F)c5)c(Cl)c4)c3c2)s1
II. O=C(/C=C/c1ccc(-c2ccc3ncnc(Nc4ccc(OCc5cccc(F)c5)c(Cl)c4)c3c2)s1)NO
III. Nc1ccccc1NC(=O)/C=C/c1cccc(-c2ccc3ncnc(Nc4ccc(OCc5cccc(F)c5)c(Cl)c4)c3c2)c1
IV. O=C(/C=C/c1cccc(-c2ccc3ncnc(Nc4ccc(OCc5cccc(F)c5)c(Cl)c4)c3c2)c1)NO
V. Nc1ccccc1NC(=O)/C=C/c1ccc(-c2ccc3ncnc(Nc4ccc(OCc5cccc(F)c5)c(Cl)c4)c3c2)cc1
Order each entry by recorded pIC50, climbing from the minimum. To answer, write out the labels according to the requested order.
III, V, IV, II, I

Source: ChEMBL document CHEMBL1629443
